Target: Rae1–Nup98_(GLEBS) complex, P78406
Assay: ITC
result-type: pKd
Expect pKd as a plain number equal to -log10 of the molar concentration.

Fill in: pKd of KPLTKKNYSELDDEEPMELDYP (modifications not checked) [SARS-CoV-1 Orf6CTT (22-mer peptide, residues 42–63 of SARS-CoV-1 Orf6)] is ___ 6.56
